The entries below are paired with their reported inhibition at 5 µM.
system: dengue virus type 2; assay: Antiviral activity against DENV2 16681 infected in human Huh-7 cells at 5 uM after 3 days by luciferase reporter gene assay; assay type: functional; conditions: Dengue virus, 16681, Huh-7, 72 h
Write down the numeric answer in % and omit the unit.

Ask: Param item = OC(c1ccccc1)c1nc2ccc(F)cc2cc1-c1ccc(F)cc1 (stereo unspecified) ; retrieve measured inhibition at 5 µM.
Reply: 22.2

Ask: Same again, this time with COc1ccc(-c2cc3cc(OC)ccc3nc2C(=O)c2ccccc2)cc1
Reply: 36.2

Ask: Field entry: COc1ccc(-c2cc3cc(OC)ccc3nc2C(O)c2ccccc2)cc1 (stereo unspecified)
Reply: 38

Ask: Try O=C(c1ccc(O)cc1)c1nc2ccccc2cc1-c1ccc(O)cc1 next.
Reply: 38.7

Ask: Request: COc1ccc(-c2cc3cc(F)ccc3nc2C(O)c2ccccc2)cc1 (stereo unspecified)
Reply: 16.1

Ask: Similarly, COc1ccc(C(=O)c2nc3ccccc3cc2-c2ccc(OC)cc2)cc1 ?
Reply: 10.1

* * *

Reported viability at 72 h, 20 µM values follow for various molecules
assay: Cytotoxicity against human HuH7 cells assessed as cell viability at 20 uM after 3 days by XTT assay; type: cell-based, Huh-7; settings: read-out: Activity
Number in %, nothing else.

For orientation, consider the following solved cases.
- Molecule: "O=C(c1ccc(O)cc1)c1nc2ccccc2cc1-c1ccc(OCCN2CCCC2)cc1"
  viability at 72 h, 20 µM [%]: 91
- Molecule: "COc1ccc(-c2cc3cc(OC)ccc3nc2C(=O)c2ccccc2)cc1"
  viability at 72 h, 20 µM [%]: 87.6
- Molecule: "O=C(c1ccc(O)cc1)c1nc2ccccc2cc1-c1ccc(O)cc1"
  viability at 72 h, 20 µM [%]: 90.3

# context switch: different molecule, same viability at 72 h, 20 µM
Ask: // returns reported viability at 72 h, 20 µM for input COc1ccc(-c2cc3cc(OC)ccc3nc2C(O)c2ccccc2)cc1 (centres undefined)
Reply: 87.7
